Assay Remarks: Tmax in Sprague-Dawley rat at 10 mg/kg, po measured up to 24 hrs by LC-MS/MS analysis
Type: ADME, organism-based
Run Parameters: in vivo
Experimental Readout: Tmax (h)

A. O=C(O)c1ccc2nc(Cc3ccc(-c4ccc(F)c(OCc5ccc(Cl)c6ccoc56)n4)cc3F)n(C[C@@H]3CCO3)c2c1
B. N#Cc1ccc(COc2cccc(C3CCN(Cc4nc5ccc(C(=O)O)cc5n4C[C@@H]4CCO4)CC3)n2)c(F)c1 [DANUGLIPRON]
Lookup: Please indicate which item has the smaller measured Tmax: A versus B Field: selected label. Fill in the label of the entry you choose.
Found: B

###

Target: LCK (tyrosine-protein kinase Lck) (Homo sapiens)
Sequence (P06239 whole entry): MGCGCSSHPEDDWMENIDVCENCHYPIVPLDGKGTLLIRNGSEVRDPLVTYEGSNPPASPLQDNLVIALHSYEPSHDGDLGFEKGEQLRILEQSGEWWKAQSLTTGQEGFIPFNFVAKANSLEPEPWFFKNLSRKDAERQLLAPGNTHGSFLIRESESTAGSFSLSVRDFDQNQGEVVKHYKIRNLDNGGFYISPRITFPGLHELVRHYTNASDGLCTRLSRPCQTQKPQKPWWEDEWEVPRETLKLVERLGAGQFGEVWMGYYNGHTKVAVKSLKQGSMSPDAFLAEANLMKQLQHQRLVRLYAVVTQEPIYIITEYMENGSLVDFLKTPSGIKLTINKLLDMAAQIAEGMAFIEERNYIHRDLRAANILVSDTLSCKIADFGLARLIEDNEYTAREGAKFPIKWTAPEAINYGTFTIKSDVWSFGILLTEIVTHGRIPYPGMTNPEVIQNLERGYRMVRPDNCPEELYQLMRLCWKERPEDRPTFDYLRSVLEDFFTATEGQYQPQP
Assay Remarks: Inhibition of LCK (unknown origin) at 10 uM relative to control
Format: toxicity
Experimental Readout: inhibition at 10 µM (%)
Field: numeric (%). Do not append units.

Lookup: What inhibition at 10 µM appears in the records for this molecule with LCK (tyrosine-protein kinase Lck) (Homo sapiens)? O=C(O)c1ccc2nc(Cc3ccc(-c4ccc(F)c(OCc5ccc(Cl)c6ccoc56)n4)cc3F)n(C[C@@H]3CCO3)c2c1
Found: 87.5

###

Target: CB2 (cannabinoid receptor 2) (Homo sapiens, UniProt P34972)
Sequence (P34972 whole entry): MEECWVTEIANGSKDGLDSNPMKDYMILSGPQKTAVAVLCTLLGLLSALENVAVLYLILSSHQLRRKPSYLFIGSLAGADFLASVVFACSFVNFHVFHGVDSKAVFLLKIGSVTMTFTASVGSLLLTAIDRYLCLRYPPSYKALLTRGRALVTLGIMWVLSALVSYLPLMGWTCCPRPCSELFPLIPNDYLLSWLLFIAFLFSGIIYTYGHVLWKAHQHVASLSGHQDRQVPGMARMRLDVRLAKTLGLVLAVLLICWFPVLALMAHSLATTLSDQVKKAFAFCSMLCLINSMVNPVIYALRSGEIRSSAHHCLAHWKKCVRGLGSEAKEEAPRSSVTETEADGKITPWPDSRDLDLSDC
Assay Remarks: Inhibition of CB2 (unknown origin) at 10 uM relative to control
Format: toxicity
Experimental Readout: inhibition at 10 µM (%)
Numeric only. Scale: %

Lookup: I have this compound here, O=C(O)c1ccc2nc(Cc3ccc(-c4ccc(F)c(OCc5ccc(Cl)c6ccoc56)n4)cc3F)n(C[C@@H]3CCO3)c2c1 , and I need its recorded inhibition at 10 µM.
Found: 74.4

###

Target: Cytochrome P450 2C9 (Homo sapiens, UniProt P11712)
Sequence (P11712 whole entry): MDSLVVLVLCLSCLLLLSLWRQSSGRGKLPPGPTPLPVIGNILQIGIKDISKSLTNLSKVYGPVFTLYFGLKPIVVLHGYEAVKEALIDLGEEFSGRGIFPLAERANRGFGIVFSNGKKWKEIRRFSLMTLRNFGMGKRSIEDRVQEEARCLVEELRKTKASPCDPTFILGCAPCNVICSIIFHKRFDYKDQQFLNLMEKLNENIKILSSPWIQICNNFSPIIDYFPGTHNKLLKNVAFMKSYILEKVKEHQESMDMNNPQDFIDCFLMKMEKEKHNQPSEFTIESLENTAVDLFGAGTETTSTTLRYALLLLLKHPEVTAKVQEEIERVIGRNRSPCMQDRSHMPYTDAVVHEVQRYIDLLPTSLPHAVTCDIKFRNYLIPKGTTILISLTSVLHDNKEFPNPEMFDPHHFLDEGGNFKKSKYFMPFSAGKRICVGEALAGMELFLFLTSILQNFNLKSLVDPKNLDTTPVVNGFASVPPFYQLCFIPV
pIC50: −log10 of the molar value.
Experimental Readout: pIC50

Lookup: API: value(readout= pIC50, system= Cytochrome P450 2C9 (Homo sapiens, UniProt P11712), query= N#Cc1ccc(COc2cccc(C3CCN(Cc4nc5ccc(C(=O)O)cc5n4C[C@@H]4CCO4)CC3)n2)c(F)c1 )
Found: < 4.52

###

Target: Glucagon-like peptide 1 receptor (Homo sapiens, UniProt P43220)
Sequence (P43220 whole entry): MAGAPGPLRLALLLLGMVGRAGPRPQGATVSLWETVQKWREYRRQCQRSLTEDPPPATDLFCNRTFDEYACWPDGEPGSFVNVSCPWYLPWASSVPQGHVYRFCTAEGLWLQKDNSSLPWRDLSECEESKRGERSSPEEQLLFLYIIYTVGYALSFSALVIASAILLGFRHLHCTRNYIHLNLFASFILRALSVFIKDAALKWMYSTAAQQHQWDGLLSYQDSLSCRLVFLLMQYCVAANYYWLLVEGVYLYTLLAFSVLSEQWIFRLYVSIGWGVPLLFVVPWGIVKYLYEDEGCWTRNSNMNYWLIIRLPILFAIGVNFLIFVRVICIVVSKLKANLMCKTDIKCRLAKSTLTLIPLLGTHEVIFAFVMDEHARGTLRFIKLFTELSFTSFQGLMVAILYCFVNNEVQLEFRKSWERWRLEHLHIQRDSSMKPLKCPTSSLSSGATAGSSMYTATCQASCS
Assay Remarks: Agonist activity at human GLP-1R expressed in HEK293 cells assessed as beta-arrestin recruitment
Format: functional, cell-based
Experimental Readout: EC50 (nM)
Kindly provide the numeric value in nM only, without the unit symbol.

Lookup: Returns the measured EC50 for the input compound. Input: O=C(O)c1ccc2nc(Cc3ccc(-c4ccc(F)c(OCc5ccc(Cl)c6ccoc56)n4)cc3F)n(C[C@@H]3CCO3)c2c1
Found: 118

###

Assay Remarks: AUC last in Cynomolgus monkey at 5 mg/kg, po measured up to 48 hrs by LC-MS/MS analysis
Assay type: ADME, organism-based, Macaca fascicularis
Run Parameters: in vivo
Experimental Readout: AUC(0-t) at 48 h (ng·h/mL)
# unit: ng·h/mL | format: bare number

Lookup: Give its AUC(0-t) at 48 h value. Item: O=C(O)c1ccc2nc(Cc3ccc(-c4ccc(F)c(OCc5ccc(Cl)c6ccoc56)n4)cc3F)n(C[C@@H]3CCO3)c2c1
Found: 2440

###

Assay Remarks: Cmax in Cynomolgus monkey at 5 mg/kg, po measured up to 48 hrs by LC-MS/MS analysis
Format: ADME, organism-based, Macaca fascicularis
Run Parameters: in vivo
Experimental Readout: Cmax (ng/mL)
Write it as a number; the unit ng/mL goes unstated.

Lookup: Could you share which Cmax value was measured for O=C(O)c1ccc2nc(Cc3ccc(-c4ccc(F)c(OCc5ccc(Cl)c6ccoc56)n4)cc3F)n(C[C@@H]3CCO3)c2c1 ?
Found: 327

###

Assay Remarks: Metabolic stability in human liver microsomes assessed as intrinsic clearance at 1 uM measured after 5 to 45 mins in presence of NADPH by LC-MS/MS analysis
Type: ADME, Microsome
Run Parameters: time 5-45 min, read-out: CLH
Experimental Readout: CLint scaled at 1 µM (mL/min/kg)

Lookup: Record request: CLint scaled at 1 µM value, item O=C(O)c1ccc2nc(Cc3ccc(-c4cccc(OCc5ccc(Cl)c6cc(Cl)oc56)n4)cc3F)n(C[C@@H]3CCO3)c2c1
Found: 15

Lookup: I would be grateful if you could share the reported CLint scaled at 1 µM for N#Cc1ccc(COc2cccc(C3CCN(Cc4nc5ccc(C(=O)O)cc5n4C[C@@H]4CCO4)CC3)n2)c(F)c1 [DANUGLIPRON] .
Found: 16

Lookup: Consider the compound O=C(O)c1ccc2nc(Cc3ccc(-c4ccc(F)c(OCc5ccc(Cl)c6ccoc56)n4)cc3F)n(C[C@@H]3CCO3)c2c1 and give its measured CLint scaled at 1 µM.
Found: 13.3

###

Assay Remarks: AUC last in male Sprague-Dawley rat at 1 mg/kg, iv measured up to 24 hrs by LC-MS/MS analysis
Type: ADME, organism-based
Run Parameters: in vivo
Experimental Readout: AUC(0-t) at 24 h (ng·h/mL)
Respond numerically; units are ng·h/mL and should not be typed.

Lookup: Return reported AUC(0-t) at 24 h; argument: O=C(O)c1ccc2nc(Cc3ccc(-c4ccc(F)c(OCc5ccc(Cl)c6ccoc56)n4)cc3F)n(C[C@@H]3CCO3)c2c1
Found: 1480

###

Assay Remarks: Metabolic stability in human liver microsomes assessed as half life at 1 uM measured after 5 to 45 mins in presence of NADPH by LC-MS/MS analysis
Format: ADME, Microsome
Run Parameters: time 5-45 min
Experimental Readout: half-life at 1 µM (h)

Lookup: Name the recorded half-life at 1 µM for N#Cc1ccc(COc2cccc(C3CCN(Cc4nc5ccc(C(=O)O)cc5n4C[C@@H]4CCO4)CC3)n2)c(F)c1 .
Found: 1.8

Lookup: Fill in the blank: the reported half-life at 1 µM of O=C(O)c1ccc2nc(Cc3ccc(-c4ccc(F)c(OCc5ccc(Cl)c6ccoc56)n4)cc3F)n(C[C@@H]3CCO3)c2c1 is ____.
Found: 2.18

Lookup: Given the entry O=C(O)c1ccc2nc(Cc3ccc(-c4cccc(OCc5ccc(Cl)c6cc(Cl)oc56)n4)cc3F)n(C[C@@H]3CCO3)c2c1 , report its measured half-life at 1 µM.
Found: 1.93

###

Target: Glucagon-like peptide 1 receptor (Homo sapiens)
Assay Remarks: Agonist activity at human GLP-1R expressed in HEK293 cells by cAMP accumulation assay
Assay type: functional, cell-based
Experimental Readout: pEC50
Scale for pEC50: -log10 of concentration given in mol/L; no unit attached.

Lookup: Consider the compound O=C(O)c1ccc2nc(Cc3ccc(-c4ccc(F)c(OCc5ccc(Cl)c6ccoc56)n4)cc3F)n(C[C@@H]3CCO3)c2c1 and give its measured pEC50.
Found: 10.54

###

Target: Glucagon-like peptide 1 receptor (Homo sapiens, UniProt P43220)
Assay Remarks: Agonist activity at human GLP-1R expressed in HEK293 cells coexpressing CRE LUC incubated for 5 hrs by luciferase based microplate reader analysis
Format: functional, cell-based
Experimental Readout: EC50 (nM)

Lookup: Reported EC50 for O=C(O)c1ccc2nc(Cc3ccc(-c4cncc(OCc5ccc(Cl)c6ccoc56)n4)cc3F)n(C[C@@H]3CCO3)c2c1 : what is it?
Found: 70.9

a. COCCn1c(Cc2ccc(-c3cccc(OCc4ccc(Cl)c5ccoc45)n3)cc2F)nc2ccc(C(=O)O)cc21
b. N#Cc1ccc(COc2cccc(N3CCC(Cc4nc5ccc(C(=O)O)cc5n4C[C@@H]4CCO4)CC3)n2)c(F)c1
c. Cc1cc(-c2cccc(OCc3ccc(C#N)cc3F)n2)ccc1Cc1nc2ccc(C(=O)O)cc2n1C[C@@H]1CCO1
Lookup: Could you please sort these 3 entries by EC50 from high to low? Kindly provide the labels arranged according to the requested ordering.
Found: a, b, c

P. Cc1cc2c(Cl)ccc(COc3cccc(-c4ccc(Cc5nc6ccc(C(=O)O)cc6n5C[C@@H]5CCO5)c(F)c4)n3)c2o1
Q. O=C(O)c1ccc2nc(Cc3ccc(-c4ccc(F)c(OCc5ccc(Cl)c6ccoc56)n4)cc3F)n(C[C@@H]3CCO3)c2c1
Lookup: // which entry reports the smaller EC50, P or Q ? Pick one; state its label.
Found: Q

###

Target: Cytochrome P450 1A2 (Homo sapiens, UniProt P05177)
Sequence (P05177 whole entry): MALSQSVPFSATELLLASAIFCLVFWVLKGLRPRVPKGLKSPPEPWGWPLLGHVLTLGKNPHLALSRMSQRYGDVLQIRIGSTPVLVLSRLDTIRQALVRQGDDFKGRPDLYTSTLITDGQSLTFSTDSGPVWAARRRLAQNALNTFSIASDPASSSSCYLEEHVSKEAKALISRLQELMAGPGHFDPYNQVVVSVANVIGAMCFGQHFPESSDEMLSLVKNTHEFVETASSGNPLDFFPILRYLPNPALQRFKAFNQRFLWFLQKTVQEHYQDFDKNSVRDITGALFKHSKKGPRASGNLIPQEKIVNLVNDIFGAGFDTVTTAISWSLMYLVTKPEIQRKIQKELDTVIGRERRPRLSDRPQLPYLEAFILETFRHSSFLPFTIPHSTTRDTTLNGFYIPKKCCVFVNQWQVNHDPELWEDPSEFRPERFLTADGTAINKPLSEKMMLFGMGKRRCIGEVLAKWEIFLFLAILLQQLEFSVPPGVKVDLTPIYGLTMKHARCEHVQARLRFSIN
Experimental Readout: IC50

Lookup: // returns reported IC50 for input N#Cc1ccc(COc2cccc(C3CCN(Cc4nc5ccc(C(=O)O)cc5n4C[C@@H]4CCO4)CC3)n2)c(F)c1
Found: > 30 µM

###

Assay Remarks: Metabolic stability in human liver microsomes assessed as hepatic clearance at 1 uM measured after 5 to 45 mins in presence of NADPH by LC-MS/MS analysis
Assay type: ADME, Microsome
Run Parameters: time 5-45 min
Experimental Readout: CLhep predicted at 1 µM (mL/min/kg)

Lookup: So what does the record say about CLhep predicted at 1 µM for N#Cc1ccc(COc2cccc(C3CCN(Cc4nc5ccc(C(=O)O)cc5n4C[C@@H]4CCO4)CC3)n2)c(F)c1 ?
Found: 9.04

Lookup: If you can, please state the reported CLhep predicted at 1 µM value of O=C(O)c1ccc2nc(Cc3ccc(-c4ccc(F)c(OCc5ccc(Cl)c6ccoc56)n4)cc3F)n(C[C@@H]3CCO3)c2c1 .
Found: 8.09

Lookup: Entry O=C(O)c1ccc2nc(Cc3ccc(-c4cccc(OCc5ccc(Cl)c6cc(Cl)oc56)n4)cc3F)n(C[C@@H]3CCO3)c2c1 has what CLhep predicted at 1 µM?
Found: 8.7

Where do these numbers come from? They come from ChEMBL document CHEMBL6134892.
